Target: cJun-TRE complex (Homo sapiens, UniProt P05412)
Construct: In the case of the CREB1 and cJun bZIP domains
Assay: FP antagonism assay cJun-TRE
Type: biochemical
Conditions: FP, FAM-TRE DNA, equivalent experiment, pH 7.4
recorded metric: pIC50
Notebook: values listed as pIC50 are -log10 of the concentration (mol/L).

Q: Reported pIC50, substance Ac-LEQQLEELAQENEELEKEAAELQQQIARLKNEVAKLENENKTLDREIKALQREYSHKSD-NH2 [ATF2W] : ____
Result: 5.73

Where do these numbers come from? They come from paper PMC12648313.
